Each entry below lists one item and its recorded pIC50 value.
- System name: PRMT5 (Homo sapiens)
- Construct: purchased Viva (custom protein)
- Sequence (O14744 whole entry): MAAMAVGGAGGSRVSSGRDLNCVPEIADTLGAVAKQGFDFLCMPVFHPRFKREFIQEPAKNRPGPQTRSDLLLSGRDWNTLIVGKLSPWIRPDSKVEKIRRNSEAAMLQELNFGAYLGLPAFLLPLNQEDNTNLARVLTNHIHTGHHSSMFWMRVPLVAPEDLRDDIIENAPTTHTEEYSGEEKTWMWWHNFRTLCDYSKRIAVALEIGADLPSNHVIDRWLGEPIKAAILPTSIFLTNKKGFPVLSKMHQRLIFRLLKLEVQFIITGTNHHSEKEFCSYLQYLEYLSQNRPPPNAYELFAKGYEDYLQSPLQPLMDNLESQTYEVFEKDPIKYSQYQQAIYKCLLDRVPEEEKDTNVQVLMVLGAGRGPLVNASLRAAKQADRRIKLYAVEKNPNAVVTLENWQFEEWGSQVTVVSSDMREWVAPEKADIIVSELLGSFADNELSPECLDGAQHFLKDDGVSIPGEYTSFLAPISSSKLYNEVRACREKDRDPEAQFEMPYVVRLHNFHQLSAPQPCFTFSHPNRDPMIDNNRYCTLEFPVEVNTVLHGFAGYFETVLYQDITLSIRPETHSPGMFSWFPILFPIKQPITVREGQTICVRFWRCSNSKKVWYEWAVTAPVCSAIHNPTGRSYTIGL
- Sequence (Q9BQA1 whole entry partner): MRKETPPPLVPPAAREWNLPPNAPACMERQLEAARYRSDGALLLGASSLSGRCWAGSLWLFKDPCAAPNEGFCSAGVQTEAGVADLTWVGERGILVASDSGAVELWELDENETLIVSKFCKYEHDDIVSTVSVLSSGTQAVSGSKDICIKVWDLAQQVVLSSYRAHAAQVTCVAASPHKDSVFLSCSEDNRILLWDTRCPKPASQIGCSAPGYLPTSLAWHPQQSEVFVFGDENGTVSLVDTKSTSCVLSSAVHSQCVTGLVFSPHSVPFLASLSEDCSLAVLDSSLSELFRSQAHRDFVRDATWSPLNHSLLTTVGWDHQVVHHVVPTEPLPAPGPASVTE
- Test method notes: PRMT5 biochemical IC50 assay with no cofactor
- Test context: PRMT5, no cofactor; read-out: No Cofactor/rel IC50
pIC50: −log10 of the molar value.

Look up and state reported pIC50 for CC(=O)Nc1ccc([C@H]2CC[C@H](C)CN2C(=O)C(=O)Nc2cncc(C(N)=O)c2)cn1 (single isomer, unassigned)
< 6.30

Look up and state reported pIC50 for C[C@@H]1CC[C@@H]([C@H]2CC[C@H](O)CC2)N(C(=O)C(=O)Nc2cncc(C(N)=O)c2)C1 (single isomer, unassigned)
< 6.30

Look up and state reported pIC50 for Cc1cc(NC(=O)C(=O)N2C[C@@H](C)CC[C@@H]2[C@H]2CC[C@@H](O)CC2)cnc1N (single isomer, unassigned)
< 6.30
